In this section we review reported MIC values for a set of compounds.
Test system: various strains of bacteria
protocolSummary: Antimicrobial potency: bacterial growth inhibition by OD600 (Antibacterial assay 1)
Format: cell-based
conditionDescription: read-out: Antibacterial assay 1 (MITC95)
assayEndpoint: MIC

{"compound": "CCCCc1ccc(S(=O)(=O)Nc2ccc(NC(=O)CCNC(=O)c3ccc(NS(=O)(=O)c4ccc(CCOC)cc4)c(C(O)O)c3)cc2C(=O)O)cc1 [Compound 21]", "endpointValue": "0.782 µM"}
{"compound": "O=C(Nc1ccc(NC(=O)C(=O)NCCc2ccc(Cl)cc2)c(C(=O)O)c1)Nc1ccc(NC(=O)C(=O)NCCc2ccc(Cl)cc2)c(C(=O)O)c1 [Compound 19]", "endpointValue": "> 3.13 µM"}
{"compound": "O=C(CCCOc1ccc(NS(=O)(=O)c2cnn(-c3ccc(Cl)cc3)c2)c(C(=O)O)c1)Nc1ccc(NC(=O)Cc2cccc(-c3ccc(F)cc3)c2)c(C(=O)O)c1 [Compound 12]", "endpointValue": "0.0489 µM"}
{"compound": "O=C(CCNC(=O)c1ccc(NS(=O)(=O)c2cnn(-c3ccc(Cl)cc3)c2)c(C(O)O)c1)Nc1ccc(NS(=O)(=O)c2cnn(-c3ccc(Cl)cc3)c2)c(C(=O)O)c1 [Compound 23]", "endpointValue": "0.098 µM"}
{"compound": "O=C(CCCOc1ccc(NS(=O)(=O)c2cnn(-c3ccc(Cl)cc3)c2)c(C(=O)O)c1)Nc1ccc(NC(=O)Cc2ccc(-c3ccc(F)cc3)cc2)c(C(=O)O)c1 [Compound 11]", "endpointValue": "0.0489 µM"}
{"compound": "O=C(Nc1ccc(NC(=O)C(=O)NCc2ccc(Cl)cc2)c(C(=O)O)c1)Nc1ccc(NC(=O)C(=O)NCc2ccc(Cl)cc2)c(C(=O)O)c1 [Compound 17]", "endpointValue": "0.0245 µM"}
{"compound": "Cc1c(S(=O)(=O)Nc2ccc(NC(=O)CCCOc3ccc(NS(=O)(=O)c4cnn(-c5ccc(Cl)cc5)c4)c(C(=O)O)c3)cc2C(=O)O)sc2ccc(Cl)cc12 [Compound 7]", "endpointValue": "0.0122 µM"}
{"compound": "O=C(Nc1ccc(NS(=O)(=O)c2cnn(-c3ccc(F)cc3)c2)c(C(=O)O)c1)Nc1ccc(NS(=O)(=O)c2cnn(-c3ccc(F)cc3)c2)c(C(=O)O)c1 [Compound 14]", "endpointValue": "3.13 µM"}
{"compound": "CCCCc1ccc(S(=O)(=O)Nc2ccc(NC(=O)CCC(=O)Nc3cnc(NS(=O)(=O)c4ccc(CCCC)cc4)c(C(=O)O)c3)cc2C(=O)O)cc1 [Compound 3]", "endpointValue": "0.621 µM"}
{"compound": "O=C(CCCOc1ccc(NS(=O)(=O)c2cnn(-c3ccc(Cl)cc3)c2)c(C(=O)O)c1)Nc1ccc(NS(=O)(=O)c2ccc(-c3ccc(F)cc3)cc2)c(C(=O)O)c1 [Compound 6]", "endpointValue": "0.0173 µM"}
{"compound": "CCCCc1ccc(S(=O)(=O)Nc2ccc(NC(=O)Nc3ccc(NS(=O)(=O)c4ccc(CCCC)cc4)c(C(=O)O)c3)cc2C(=O)O)cc1 [Compound 15]", "endpointValue": "2.21 µM"}
